Values compiled from patent US20180036441A1.

target: T1, MUC1 on HCT116/MUC1 cells (UniProt P15941 24-1255, limits assumed); experiment: FACS titration, HCT116/MUC1 cells, antibody at 1.953 nM
T1 construct: whole, on cells; also called MUC1 overexpressed cell line
T1 sequence (P15941 24-1255 limits assumed): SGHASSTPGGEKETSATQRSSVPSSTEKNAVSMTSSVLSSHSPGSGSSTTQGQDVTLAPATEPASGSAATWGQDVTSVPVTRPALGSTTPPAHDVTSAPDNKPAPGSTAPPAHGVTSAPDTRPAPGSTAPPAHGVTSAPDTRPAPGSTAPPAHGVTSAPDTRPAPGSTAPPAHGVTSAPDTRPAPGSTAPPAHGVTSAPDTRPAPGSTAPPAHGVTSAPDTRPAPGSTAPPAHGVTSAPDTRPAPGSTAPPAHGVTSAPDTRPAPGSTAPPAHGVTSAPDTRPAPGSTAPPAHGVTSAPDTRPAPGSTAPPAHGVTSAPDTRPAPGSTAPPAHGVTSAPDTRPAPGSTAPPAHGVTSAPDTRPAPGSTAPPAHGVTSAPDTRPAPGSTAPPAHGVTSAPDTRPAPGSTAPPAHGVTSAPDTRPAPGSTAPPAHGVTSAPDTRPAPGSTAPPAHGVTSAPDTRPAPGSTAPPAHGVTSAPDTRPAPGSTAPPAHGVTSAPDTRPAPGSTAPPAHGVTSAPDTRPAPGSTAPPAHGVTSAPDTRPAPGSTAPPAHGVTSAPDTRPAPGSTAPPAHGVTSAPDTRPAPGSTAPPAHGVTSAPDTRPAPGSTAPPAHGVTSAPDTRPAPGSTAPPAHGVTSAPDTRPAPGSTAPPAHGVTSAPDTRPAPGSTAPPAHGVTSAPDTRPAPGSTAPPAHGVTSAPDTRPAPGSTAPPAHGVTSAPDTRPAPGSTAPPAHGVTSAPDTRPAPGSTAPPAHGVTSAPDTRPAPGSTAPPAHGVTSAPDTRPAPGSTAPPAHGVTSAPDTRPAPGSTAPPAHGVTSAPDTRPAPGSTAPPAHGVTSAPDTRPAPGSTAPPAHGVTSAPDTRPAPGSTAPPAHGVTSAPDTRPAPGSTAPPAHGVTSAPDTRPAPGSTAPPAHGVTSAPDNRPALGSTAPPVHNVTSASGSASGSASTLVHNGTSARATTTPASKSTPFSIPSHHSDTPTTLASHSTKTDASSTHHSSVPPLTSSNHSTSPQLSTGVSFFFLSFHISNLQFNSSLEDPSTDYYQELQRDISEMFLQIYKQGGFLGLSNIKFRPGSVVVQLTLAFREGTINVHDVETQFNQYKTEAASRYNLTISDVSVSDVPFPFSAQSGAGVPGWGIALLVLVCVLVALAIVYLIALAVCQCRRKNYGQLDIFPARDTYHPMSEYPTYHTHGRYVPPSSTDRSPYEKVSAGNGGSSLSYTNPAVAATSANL
Listed binders paired with reported geometric mean
Enter the number alone.

VH3 + VL4 (antibody, V domains shown, Humanized IgG expressed in HEK293; also called humanized antibody VH3+VL4) VH: QVQLVQSGAEVKKPGASVKVSCKASGYAFSNFWMNWVRQAPGQGLEWMGQIYPGDGDTNYNGKFKGRVTMTRDTSISTAYMELSRLRSDDTAVYYCARSYYRSAWFAYWGQGTLVTVSS VL: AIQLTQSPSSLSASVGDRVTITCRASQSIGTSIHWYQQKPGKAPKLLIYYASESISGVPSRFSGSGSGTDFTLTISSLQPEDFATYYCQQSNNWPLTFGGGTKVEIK ... 19

Now look at this entry.
Indicate its recorded geometric mean; the binder in question is VH5 + VL3 (antibody, V domains shown, Humanized IgG expressed in HEK293; also called humanized antibody VH5+VL3) VH: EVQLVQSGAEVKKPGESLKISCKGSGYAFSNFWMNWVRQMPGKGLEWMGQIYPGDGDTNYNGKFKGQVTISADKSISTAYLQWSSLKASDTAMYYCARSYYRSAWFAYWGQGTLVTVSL VL: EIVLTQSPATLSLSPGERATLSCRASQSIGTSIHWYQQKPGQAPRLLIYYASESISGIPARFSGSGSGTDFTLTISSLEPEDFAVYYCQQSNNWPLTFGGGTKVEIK
8.05
